Origin of measurements: patent US20260365734

# tested.on: human PD-L1 (cell surface) (human, UniProt Q9NZQ7)
# Sequence (Q9NZQ7 19-238): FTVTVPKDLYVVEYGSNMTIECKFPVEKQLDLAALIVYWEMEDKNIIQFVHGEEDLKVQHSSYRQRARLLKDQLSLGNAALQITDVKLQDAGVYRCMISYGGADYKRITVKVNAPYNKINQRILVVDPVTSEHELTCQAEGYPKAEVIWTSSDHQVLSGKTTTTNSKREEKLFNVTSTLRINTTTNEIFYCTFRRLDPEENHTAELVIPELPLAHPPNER
# assay.notes: FACS, CHO-h-PD-L1 cells
pEC50: −log10 of the molar value.
Entries and their pEC50

# binder, pEC50
records = [
    ("1F4-hv7-NT (antibody, V domains shown) VH: QVQLVESGGGLVKPGGSLRLSCAASGFSASDVVMAWYRQAPGKQREFVANIAASSTTRYADSVKGRFTISRDNAKNSLYLQMNSLRAEDTAVYYCNALVWTGSSYNNWGQGTQVTVSS", 9.89),
    ("4D2-hv2-NT (antibody, V domains shown) VH: QVQLVESGGGLVKPGGSLRLSCAASGFSASDVVMAWYRQAPGKQREFVSNLGASSTTRYADSVKGRFTISRDNAKNSLYLQMNSLRAEDTAVYYCNALVWTGSSYNNWGQGTQVTVSS", 9.69),
    ("4E2-hv2-NT (antibody, V domains shown) VH: EVQLVESGGGLVKPGGSLRLSCAASGFSAGDVVMAWYRQAPGKQREFVSNIAASSTTRYADSVKGRFTISRDNAKNSLYLQMNSLRAEDTAVYYCNALVWTGSSYNNWGQGTQVTVSS", 9.96),
    ("4E2-hv1-NT (antibody, V domains shown) VH: EVQLVESGGGLVKPGGSLRLSCAASGFSAGDVVMAWYRQAPGKQREFVANIAASSTTRYADSVKGRFTISRDNAKNSLYLQMNSLRAEDTAVYYCNALVWTGSSYNNWGQGTQVTVSS", 9.96),
    ("4D2-hv1-NT (antibody, V domains shown) VH: QVQLVESGGGLVKPGGSLRLSCAASGFSASDVVMAWYRQAPGKQREFVANLGASSTTRYADSVKGRFTISRDNAKNSLYLQMNSLRAEDTAVYYCNALVWTGSSYNNWGQGTQVTVSS", 9.84),
    ("4D2-hv4-NT (antibody, V domains shown) VH: QVQLVESGGGLVKPGGSLRLSCAASGFSASDVVMAWYRQAPGKQREFVSNLGASSTTNYADSVKGRFTISRDNAKNSLYLQMNSLRAEDTAVYYCNALVWTGSSYNNWGQGTQVTVSS", 9.77),
    ("4D2-Alpaca-NT (antibody, V domains shown) VH: QVQLVESGGGLVQAGGSLRLSCAASGFSASDVVMAWYRQAPGKQREFVANLGASSTTRYADSVKGRFTISRDDAKNTVSLQMNSLKSEDTAVYYCNALVWTGSSYNNWGQGTQVTVSS", 9.99),
    ("4D2-hv3-NT (antibody, V domains shown) VH: QVQLVESGGGLVKPGGSLRLSCAASGFSASDVVMAWYRQAPGKQREFVSNLGASSTTYYADSVKGRFTISRDNAKNSLYLQMNSLRAEDTAVYYCNALVWTGSSYNNWGQGTQVTVSS", 9.22),
    ("4E2-hv3-NT (antibody, V domains shown) VH: EVQLVESGGGLVKPGGSLRLSCAASGFSAGDVVMAWYRQAPGKQREFVSNIAASSTTYYADSVKGRFTISRDNAKNSLYLQMNSLRAEDTAVYYCNALVWTGSSYNNWGQGTQVTVSS", 9.78),
    ("4E2-Alpaca-NT (antibody, V domains shown) VH: EVQLVESGGGSVQDGGSLTLSCAASGFSAGDVVMAWYRQAPGKQREFVANIAASSTTRYTDSVKGRFTISRDNAKNTVYLQMNSLKSEDTAVYYCNALVWTGSSYNNWGQGTQVTVSS", 9.96),
]
